Cited source for all entries: patent US20110165161A1

# testedOn: T1, human EpCAM (epithelial cell adhesion/activating molecule) (human, UniProt P16422 24-314)
# T1 sequence: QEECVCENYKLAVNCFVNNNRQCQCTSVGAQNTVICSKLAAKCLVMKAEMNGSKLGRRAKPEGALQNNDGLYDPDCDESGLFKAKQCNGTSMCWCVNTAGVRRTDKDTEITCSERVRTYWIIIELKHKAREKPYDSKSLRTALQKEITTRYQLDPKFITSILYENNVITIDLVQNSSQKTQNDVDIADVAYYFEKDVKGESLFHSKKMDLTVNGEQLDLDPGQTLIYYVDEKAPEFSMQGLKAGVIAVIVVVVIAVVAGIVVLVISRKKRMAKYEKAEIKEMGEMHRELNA
# protocolDetails: cell-based or functional assay
observedProperty: % Annexin V/PI-positive cells, T-47D, 3.0 µg/ml mAb (%)
Reply with just the number (in %).

Quick note, % Annexin V/PI-positive cells, T-47D, 3.0 µg/ml mAb for murine monoclonal antibody 4D2 (antibody, mouse IgG1, V domains shown, Mouse IgG1, kappa, from hybridoma; also called m338-4D2.20) VH: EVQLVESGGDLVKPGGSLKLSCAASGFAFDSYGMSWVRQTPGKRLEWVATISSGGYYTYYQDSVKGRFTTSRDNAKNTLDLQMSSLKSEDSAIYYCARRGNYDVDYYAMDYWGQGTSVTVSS VL: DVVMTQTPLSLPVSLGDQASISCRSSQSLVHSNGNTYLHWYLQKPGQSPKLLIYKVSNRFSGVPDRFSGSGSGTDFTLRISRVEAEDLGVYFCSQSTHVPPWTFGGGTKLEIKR landed at 44
